Data credit: ChEMBL document CHEMBL1156097

- Test system: L1210
- assayName: Cytotoxicity against mouse L1210 cells
- Format: functional, cell-based
measureName: log10 IC50 (log10 of the value in nM)

1. CCOC(=O)CNC(=O)/C=C\C(=O)N1C/C(=C\c2ccccc2)C(=O)/C(=C/c2ccccc2)C1 ... 3.79
2. CCOC(=O)[C@H](C)NC(=O)/C=C\C(=O)N1C/C(=C\c2ccc([N+](=O)[O-])cc2)C(=O)/C(=C/c2ccc([N+](=O)[O-])cc2)C1 ... 2.76
3. CCOC(=O)[C@H](Cc1ccc(O)cc1)NC(=O)/C=C\C(=O)N1C/C(=C\c2ccc([N+](=O)[O-])cc2)C(=O)/C(=C/c2ccc([N+](=O)[O-])cc2)C1 ... 2.78
4. CCOC(=O)[C@H](CC(C)C)NC(=O)/C=C\C(=O)N1C/C(=C\c2ccc([N+](=O)[O-])cc2)C(=O)/C(=C/c2ccc([N+](=O)[O-])cc2)C1 ... 2.38
5. CCOC(=O)CNC(=O)/C=C\C(=O)N1C/C(=C\c2ccc([N+](=O)[O-])cc2)C(=O)/C(=C/c2ccc([N+](=O)[O-])cc2)C1 ... 2.92
6. CCOC(=O)[C@H](CC(C)C)NC(=O)/C=C\C(=O)N1C/C(=C\c2ccccc2)C(=O)/C(=C/c2ccccc2)C1 ... 3.67
